Measured pKi values are reported for all entries that follow.
- test: Displacement of [3H]-(+)-MK-801 from NMDA PCP binding site in pig brain cortex membrane incubated for 120 mins by scintillation counting method
- Type: cell membranes, Sus scrofa
pKi: −log10 of the molar value.

{"compound": "FCC[C@H]1Cc2ccccc2C2(CCC(N3CCN(C4CCCCC4)CC3)CC2)O1 (some centres undefined)", "pKi": "< 6.00"}
{"compound": "O[C@H]1Cc2ccccc2C2(CCC(N3CCN(C4CCCCC4)CC3)CC2)O1 (some centres undefined)", "pKi": "< 6.00"}
{"compound": "CCOC(=O)C[C@H]1Cc2ccccc2C2(CCC(N3CCN(C4CCCCC4)CC3)CC2)O1 (some centres undefined)", "pKi": "< 6.00"}

I have this compound here, FCC[C@@H]1Cc2ccccc2C2(CCC(N3CCN(C4CCCCC4)CC3)CC2)O1 (some centres undefined) , and I need its recorded pKi.
< 6.00

====

- target system: Delta-type opioid receptor (Rattus norvegicus, UniProt P33533)
- Sequence (P33533 whole entry): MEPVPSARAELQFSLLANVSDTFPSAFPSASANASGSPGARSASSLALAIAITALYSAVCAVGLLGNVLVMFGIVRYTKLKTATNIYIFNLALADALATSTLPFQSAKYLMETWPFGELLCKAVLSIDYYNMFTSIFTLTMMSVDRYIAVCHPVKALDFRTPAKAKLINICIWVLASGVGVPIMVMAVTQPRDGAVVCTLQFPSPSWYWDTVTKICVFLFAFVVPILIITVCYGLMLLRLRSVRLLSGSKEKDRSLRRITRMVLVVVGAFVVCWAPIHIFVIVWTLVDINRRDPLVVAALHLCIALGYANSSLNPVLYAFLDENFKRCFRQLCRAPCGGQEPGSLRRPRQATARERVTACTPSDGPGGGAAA
- test: Displacement of [3H]DPDPE from DOR in rat brain membranes incubated for 120 mins by scintillation counting method
quantity: pKi
Remember, pKi is on a log scale: it is -log10 of the molar concentration.

Tell me the measured pKi of FCC[C@H]1Cc2ccccc2C2(CCC(N3CCN(C4CCCCC4)CC3)CC2)O1 (stereo partly specified) , please.
6.19

====

- target system: Sigma non-opioid intracellular receptor 1 (Cavia porcellus)
- Sequence (Q60492 whole entry): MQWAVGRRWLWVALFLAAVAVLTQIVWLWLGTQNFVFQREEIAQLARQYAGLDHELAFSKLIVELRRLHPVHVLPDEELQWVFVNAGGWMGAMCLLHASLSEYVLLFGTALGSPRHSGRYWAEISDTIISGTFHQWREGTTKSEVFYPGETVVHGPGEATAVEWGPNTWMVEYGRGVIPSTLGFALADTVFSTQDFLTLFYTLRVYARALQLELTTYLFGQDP
quantity: pKi
# reply with the number alone; pKi is -log10 of concentration in mol/L

Entry Fc1ccc(-n2cc(CCCCN3CCC4(CC3)OCc3ccccc34)c3ccccc32)cc1 has what pKi?
7.77

====

- target system: Voltage-gated inwardly rectifying potassium channel KCNH2 (Homo sapiens)
- Sequence (Q12809 whole entry): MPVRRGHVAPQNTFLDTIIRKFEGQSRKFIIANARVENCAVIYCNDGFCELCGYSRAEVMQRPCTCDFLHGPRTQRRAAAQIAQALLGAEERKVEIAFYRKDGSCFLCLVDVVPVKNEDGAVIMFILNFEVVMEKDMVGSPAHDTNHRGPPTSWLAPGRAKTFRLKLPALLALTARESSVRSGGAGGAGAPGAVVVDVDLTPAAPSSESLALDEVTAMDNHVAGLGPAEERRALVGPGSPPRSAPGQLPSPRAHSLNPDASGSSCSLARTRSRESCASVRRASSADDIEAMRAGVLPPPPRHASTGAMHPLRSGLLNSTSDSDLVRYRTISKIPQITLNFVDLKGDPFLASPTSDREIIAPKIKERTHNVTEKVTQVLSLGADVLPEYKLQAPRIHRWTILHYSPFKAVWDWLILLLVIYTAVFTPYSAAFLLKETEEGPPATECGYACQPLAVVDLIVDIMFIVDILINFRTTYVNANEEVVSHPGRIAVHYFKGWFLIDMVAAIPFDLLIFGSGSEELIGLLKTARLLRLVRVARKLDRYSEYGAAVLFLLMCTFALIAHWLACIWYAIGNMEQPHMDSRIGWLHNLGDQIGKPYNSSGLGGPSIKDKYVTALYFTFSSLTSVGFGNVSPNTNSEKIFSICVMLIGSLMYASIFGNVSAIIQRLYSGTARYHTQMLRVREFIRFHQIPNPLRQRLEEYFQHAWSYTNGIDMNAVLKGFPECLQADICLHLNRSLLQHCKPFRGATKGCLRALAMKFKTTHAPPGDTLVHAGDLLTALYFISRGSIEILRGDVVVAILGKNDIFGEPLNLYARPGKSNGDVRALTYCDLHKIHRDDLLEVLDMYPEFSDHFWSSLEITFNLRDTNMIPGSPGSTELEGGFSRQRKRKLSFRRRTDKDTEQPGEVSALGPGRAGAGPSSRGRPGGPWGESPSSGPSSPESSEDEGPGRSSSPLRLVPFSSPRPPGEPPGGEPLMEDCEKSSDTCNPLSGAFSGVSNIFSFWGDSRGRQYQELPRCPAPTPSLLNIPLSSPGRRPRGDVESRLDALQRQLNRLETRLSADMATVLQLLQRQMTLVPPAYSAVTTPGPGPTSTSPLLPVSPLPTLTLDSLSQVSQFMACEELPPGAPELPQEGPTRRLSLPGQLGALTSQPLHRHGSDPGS
- test: Inhibition of human ERG expressed in CHO cells by automated patch clamp assay
quantity: pIC50
Scale: negative log10 of molar concentration, which is what pIC50 denotes.

{"molecule": "CCOC(=O)C[C@H]1Cc2ccccc2C2(CCC(N3CCN(C4CCCCC4)CC3)CC2)O1 (some centres not stated)", "pIC50": 5.76}

Bench note: what pIC50 did O[C@H]1Cc2ccccc2C2(CCC(N3CCN(C4CCCCC4)CC3)CC2)O1 (some centres not stated) show?
5.49

====

- target system: Sigma intracellular receptor 2 (Rattus norvegicus)
- Sequence (Q5U3Y7 whole entry): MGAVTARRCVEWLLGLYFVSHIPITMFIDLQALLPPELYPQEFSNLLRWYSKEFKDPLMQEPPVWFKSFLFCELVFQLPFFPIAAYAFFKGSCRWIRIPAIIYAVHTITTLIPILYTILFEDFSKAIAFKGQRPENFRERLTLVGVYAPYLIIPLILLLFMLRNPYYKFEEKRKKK
- test: Displacement of [3H]-di-o-tolylguanidine from sigma2 receptor in rat liver membranes incubated for 120 mins by scintillation counting method
- Type: cell membranes, Membrane
quantity: Ki (nM)

Use the examples below as a reference point.
{"compound": "CCOC(=O)C[C@H]1Cc2ccccc2C2(CCC(NCc3ccc(C)cc3C)CC2)O1 (stereo not given in full)", "Ki (nM)": 159}
{"compound": "FCC[C@H]1Cc2ccccc2C2(CCC(N3CCN(C4CCCCC4)CC3)CC2)O1 (stereo not given in full)", "Ki (nM)": 432}
{"compound": "CCOC(=O)C[C@@H]1Cc2ccccc2C2(CCC(NCc3ccc(C)cc3C)CC2)O1 (stereo not given in full)", "Ki (nM)": 231}
{"compound": "FCC[C@H]1Cc2ccccc2C2(CCC(NC3CCc4ccccc4CC3)CC2)O1 (stereo not given in full)", "Ki (nM)": 527}
{"compound": "OCC[C@@H]1Cc2ccccc2C2(CCC(N3CCN(C4CCCCC4)CC3)CC2)O1 (stereo not given in full)", "Ki (nM)": 172}

I: COc1cc2c(cc1OC)CN(C1CCC3(CC1)O[C@H](O)Cc1ccccc13)CC2 (stereo not given in full)
II: O[C@H]1Cc2ccccc2C2(CCC(N3CCN(C4CCCCC4)CC3)CC2)O1 (stereo not given in full)
Of I and II , which shows the smaller Ki value? Lab note: record the label of whichever item you select.
II
